biological target: furin, P09958; experiment: furin cleavage Z-score vs untreated control; higher = more cleavage, active = 3.5 or more, inactive = 1 or less, 8 variable residues between constant flanks; conditions: 15 min;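 further: purified furin at 1:10 enzyme:substrate in 50 mM HEPES pH 7.5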
Sequence (P09958 whole entry): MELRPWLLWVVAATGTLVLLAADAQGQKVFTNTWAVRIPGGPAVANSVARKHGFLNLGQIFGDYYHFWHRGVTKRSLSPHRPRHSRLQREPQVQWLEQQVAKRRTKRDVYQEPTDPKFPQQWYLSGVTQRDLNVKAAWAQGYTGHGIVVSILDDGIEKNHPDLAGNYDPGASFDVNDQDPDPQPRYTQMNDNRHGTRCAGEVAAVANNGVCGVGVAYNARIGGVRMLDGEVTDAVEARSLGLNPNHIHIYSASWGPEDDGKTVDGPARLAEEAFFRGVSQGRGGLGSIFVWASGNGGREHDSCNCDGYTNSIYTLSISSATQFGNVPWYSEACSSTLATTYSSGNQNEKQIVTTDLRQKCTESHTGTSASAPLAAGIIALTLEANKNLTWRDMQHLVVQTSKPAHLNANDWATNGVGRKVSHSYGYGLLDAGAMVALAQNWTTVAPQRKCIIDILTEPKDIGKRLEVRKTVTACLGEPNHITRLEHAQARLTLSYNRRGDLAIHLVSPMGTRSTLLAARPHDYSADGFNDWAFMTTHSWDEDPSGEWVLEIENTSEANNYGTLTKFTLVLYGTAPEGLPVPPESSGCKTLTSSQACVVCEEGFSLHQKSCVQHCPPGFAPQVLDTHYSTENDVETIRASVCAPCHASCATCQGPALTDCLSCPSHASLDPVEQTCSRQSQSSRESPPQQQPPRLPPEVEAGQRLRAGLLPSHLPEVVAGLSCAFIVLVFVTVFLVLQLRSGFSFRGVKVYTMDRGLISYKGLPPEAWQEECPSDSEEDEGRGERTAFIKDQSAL
Some of the results follow. How many sequences the whole screen found active is unknown.
Response key: y means furin cleavage Z-score >= 0.2; n means furin cleavage Z-score < 0.2.

Decide: furin cleavage Z-score of CAIRFRHLRSAGNASASA [FS-1536] >= 0.2? y

For this sequence, is measured furin cleavage Z-score 0.2 or higher? CACTANHDSPAGNASASA [HC1268] n

Entry CASTVCSAHLAGNASASA [HC2510] : is its furin cleavage Z-score no less than 0.2? y

Hello, I need to know if CAVRRRSVQQAGNASASA [FS-2856] has measured furin cleavage Z-score not below 0.2. Thanks! y

Answer whether furin cleavage Z-score of CAVRRRAADQAGNASASA [FS-3143] is greater than or equal to 0.2. y

// inclusive: furin cleavage Z-score at least 0.2? input: CAVVARSVNGAGNASASA [FS-1816] y

Quick check, furin cleavage Z-score >= 0.2? CAVVHRFARHAGNASASA [FS-107] y

Assess whether reported furin cleavage Z-score for CAESIRMKRYAGNASASA [FS-765] sits at 0.2 or higher. y

hey, is furin cleavage Z-score for this one >= 0.2? CASLERHLRSAGNASASA [FS-1413] y

Evaluate CAEVVTSTWHAGNASASA [HC2255] : furin cleavage Z-score at minimum 0.2? n

hey, is furin cleavage Z-score for this one >= 0.2? CAGDNRHLRSAGNASASA [FS-779] n

Does CAVRRRVQRMAGNASASA [FS-1662] have a reported furin cleavage Z-score of at least 0.2? y

For this sequence, is measured furin cleavage Z-score 0.2 or higher? CAFAPPCKPLAGNASASA [HC1227] n

Textbook exercise: given the entry CAQTFLATCIAGNASASA [HC694] , state whether its furin cleavage Z-score is greater than or equal to 0.2. y

Threshold query (furin cleavage Z-score >= 0.2) on CAQRVEFLVQAGNASASA [HC1470] y
